Reported log10 EC50 by item:
Target: human androgen receptor (AR) (Homo sapiens)
Construct: expressed in transfected cells; host or cells: mouse myoblast C2C12 cells, transiently co-transfected
Sequence (P10275 whole entry): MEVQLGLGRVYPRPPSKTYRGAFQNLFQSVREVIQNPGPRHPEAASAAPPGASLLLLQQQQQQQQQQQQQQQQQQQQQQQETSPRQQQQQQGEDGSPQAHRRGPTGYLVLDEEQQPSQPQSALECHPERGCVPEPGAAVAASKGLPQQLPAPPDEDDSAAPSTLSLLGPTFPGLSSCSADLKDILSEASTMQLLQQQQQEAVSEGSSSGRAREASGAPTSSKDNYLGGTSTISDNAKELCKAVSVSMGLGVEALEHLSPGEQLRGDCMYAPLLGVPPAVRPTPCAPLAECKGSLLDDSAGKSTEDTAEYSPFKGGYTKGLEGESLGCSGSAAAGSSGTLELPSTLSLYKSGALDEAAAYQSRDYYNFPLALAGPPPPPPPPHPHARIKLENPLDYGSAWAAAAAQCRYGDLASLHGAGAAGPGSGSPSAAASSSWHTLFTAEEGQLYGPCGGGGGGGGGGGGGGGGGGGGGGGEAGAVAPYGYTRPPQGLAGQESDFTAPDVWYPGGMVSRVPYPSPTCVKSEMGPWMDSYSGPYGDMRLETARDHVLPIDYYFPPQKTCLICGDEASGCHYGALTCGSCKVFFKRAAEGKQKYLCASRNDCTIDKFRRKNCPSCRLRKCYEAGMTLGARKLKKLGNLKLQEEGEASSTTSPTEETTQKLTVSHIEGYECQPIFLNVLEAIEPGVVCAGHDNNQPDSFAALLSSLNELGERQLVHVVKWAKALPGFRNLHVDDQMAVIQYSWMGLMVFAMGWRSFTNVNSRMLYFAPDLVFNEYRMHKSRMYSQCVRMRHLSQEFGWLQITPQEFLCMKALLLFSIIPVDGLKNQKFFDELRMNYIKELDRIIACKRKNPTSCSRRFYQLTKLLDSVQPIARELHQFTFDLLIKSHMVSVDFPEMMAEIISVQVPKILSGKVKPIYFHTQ
Test: C2C12 AR/ARE reporter assay
Format: cell-based
Heads up: the numbers are on a log10 scale; they represent EC50 in nM.

Cc1ccc2c(c1)c1c(n2Cc2ccccc2Cl)CCC(NC(=O)C(C)C)C1 (centres unmarked); 2.48
COc1ccc2c(c1)c1c(n2Cc2cccc(Cl)c2)CCC(NC(=O)C(C)C)C1 (centres unmarked); 1.60
COC(=O)N[C@@H]1CCc2c(c3cc(C#N)ccc3n2Cc2cccc(F)n2)C1; 1.24
COc1ccc2c3c(n(Cc4ccccc4)c2c1)CCC(NC(=O)C(C)C)C3 (centres unmarked); 3.08
CC(C)C(=O)NC1CCc2c(c3cc(C#N)ccc3n2Cc2cncs2)C1 (centres unmarked); 1.55
CC(C)C(=O)NC1CCc2c(c3cc(C#N)cc(F)c3n2Cc2cccc(F)c2)C1 (centres unmarked); 0.79
CC(C)C(=O)NC1CCc2c(c3cc(Br)ccc3n2Cc2ccccc2F)C1 (centres unmarked); 1.77
Cc1cccc2c3c(n(Cc4cccc(F)c4)c12)CCC(NC(=O)C(C)C)C3 (centres unmarked); 2.48

The recorded log10 EC50 for O=C(NC1CCc2c(c3cc(OC(F)(F)F)ccc3n2Cc2cccc(F)c2)C1)C1CC1 (centres unmarked) is 1.14

The recorded log10 EC50 for CC(C)C(=O)NC1CCc2c(c3cc(Br)ccc3n2Cc2cccc(Cl)c2)C1 (centres unmarked) is 1.32

The recorded log10 EC50 for COc1ccc2c(c1)c1c(n2Cc2ccccc2F)CCC(NC(=O)C(C)C)C1 (centres unmarked) is 2.38

The recorded log10 EC50 for CC(C)C(=O)N[C@@H]1CCc2c(c3cc(C#N)ccc3n2Cc2ccccc2N)C1 (single isomer, unassigned) is 0.26

The recorded log10 EC50 for COc1cccc(Cn2c3c(c4cc(OC)ccc42)CC(NC(=O)C(C)C)CC3)c1 (centres unmarked) is 2.36
